# TESTED_ON: Inadl_9, Q8NI35
# Sequence (Q8NI35 1530-1615): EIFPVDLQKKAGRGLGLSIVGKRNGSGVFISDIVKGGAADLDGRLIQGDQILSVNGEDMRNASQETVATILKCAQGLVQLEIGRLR
# PROCEDURE_DETAILS: holdup assay
# Parameters: key: below the threshold = too weak to quantify, mostly under pKd 3.1 to 4
# MEASUREMENT_PARAMETERS: plain residues with an end cap or a label only (N-terminal biotin on a linker: ado-ado)
Reported pKd values for the following binders.
When you answer, write just the number.

Record excerpt, results attached:
BINDER: KSGKQTMLVV [TRIM29, Q14134]
pKd: 3.49

BINDER: LRSPRTPSEV [OR10G3, Q8NGC4]
pKd: 4.01

BINDER: VYPNAKVELV [PDLIM4_iso2, P50479]
pKd: 3.57

Query: Read off the recorded pKd for TKGPRGPTRV [SAPCD1, Q5SSQ6]
Response: 4.11
